Test system: A549
test.method.notes: NCI tumour cell line growth inhibition, 48 h
Activity calls are given as the source filed them. Cut-off read from the data, not from the text of the source: active = GI50 up to about 1.1 µM and inactive = higher.

molecule | GI50
COc1ccccc1C(=O)NO | > 100 µM (inactive)
O=C1C[C@@H]2[C@@H](C=CC23CCCC3)N1O | > 100 µM (inactive)
CC(NC(=O)/C(=C/c1ccccc1)NC(=O)c1ccccc1)C(=O)O (stereo not given) | > 100 µM (inactive)
O=C1CCSc2nc(-c3ccc4c(c3)OCO4)nn21 | > 10 µM (inactive)
COc1cccc(-c2cc(O)c3cc(NC(C)=O)ccc3n2)c1 | 61.7 µM (inactive)

====

System: A498
test.method.notes: NCI tumour cell line growth inhibition, 48 h
Active and inactive are the calls of the source. Rule as the data show it: active = GI50 up to about 1.1 µM and inactive = higher.

compound | target.or.test.system | GI50
CC(SC(=S)Nc1cccc(F)c1)C(=O)O (centres undefined) | A498 | 26.7 µM (inactive)
C#CCNC(=O)NCCCC(NC(C)=O)C(=O)NCc1ccccc1 (centres undefined) | A498 | > 100 µM (inactive)
CCOC(=O)/C(C#N)=C/c1coc2cc(C)cc(C)c2c1=O | A498 | > 100 µM (inactive)
C1COCCN1.CN(C)c1ccc(-c2c(C#N)c(N)nc(S)c2C#N)cc1 | A498 | 24.9 µM (inactive)
Nc1ccn(CCO)c(=O)n1 | A498 | > 100 µM (inactive)
CN(CCc1ccccn1)c1nc(=[N+](C)C)ss1 | A498 | > 100 µM (inactive)
CC(=O)C1=C(O)C2C3c4c[nH]c5cccc(c45)CC3C(C)(C)N2C1=O (centres undefined) | A498 | 20.1 µM (inactive)
CC1CCC2(NC1)OC1CC3C4CC=C5CC(OC6OC(CO)C(OC7OC(C)C(O)C(O)C7O)C(O)C6OC6OC(C)C(O)C(O)C6O)CCC5(C)C4CCC3(C)C1C2C (centres undefined) | A498 | 5.74 µM (inactive)
CCC(C)N1CN(c2ccccc2)C2(CCN(CCCC(=O)c3ccc(F)cc3)CC2)C1=O (centres undefined) | A498 | 2.82 µM (inactive)

====

Measured GI50 of individual entries
System: Hs-578T
test.method.notes: NCI tumour cell line growth inhibition, 48 h
Activity calls are given as the source filed them. Rule as the data show it: active = GI50 up to about 1.1 µM and inactive = higher.

compound | GI50
O=[N+]([O-])c1ccc2c3c1[C@H]1O[C@H]1c1cccc(c1-3)[C@@H]1O[C@H]21 | 3.15 µM (inactive)
O=C1CCC2=C(CCC2)N1CCc1ccc2c(c1)OCO2 | 49 µM (inactive)
CCCC[S+]([O-])CCC(N)P(=O)(O)O (centres undefined) | > 100 µM (inactive)
COc1ccc(SC(C)(SC)c2ccccn2)c(OC)n1 (centres undefined) | 91.2 µM (inactive)
COC1CCC(OS(C)(=O)=O)C(C)O1 (centres undefined) | > 10 µM (inactive)
COc1ccc(N(C(=O)Nc2ccc(Cl)c(Cl)c2)C2c3cccn3C(=O)N2c2ccc(Cl)c(Cl)c2)cc1 (centres undefined) | > 100 µM (inactive)
OCCCSCCO | > 100 µM (inactive)
COc1cc2ncnc(Nc3cccc(Cl)c3)c2cc1OC | 3.57 µM (inactive)
O=[N+]([O-])c1c(F)c(F)c2c(c1F)Nc1ccccc1S2 | 7.1 µM (inactive)

====

Data export: GI50 values recorded with HCT-15.

molecule | target.or.test.system | GI50
Nc1ccc(Cc2c(N)[nH]c(=O)[nH]c2=O)cc1 | HCT-15 | > 100 µM
COC(=O)C(=O)c1c2ccccc2n2ccc3c4ccccc4[nH]c3c12 | HCT-15 | > 10 µM
O=C(NCP(=O)(Oc1ccccc1)Oc1ccccc1)OCc1ccccc1 | HCT-15 | > 100 µM
CCOC(=O)c1nc2cc(F)c(F)cc2nc1NCc1cc(OC)c(OC)c(OC)c1 | HCT-15 | > 100 µM
C/C(=N\NC(N)=S)c1ccc(C)cc1C | HCT-15 | > 100 µM
O=C1CC2CC(CC3(CO3)C2)C1F (stereo unspecified) | HCT-15 | > 100 µM

====

System: OVCAR-5
test.method.notes: NCI tumour cell line growth inhibition, 48 h
Active and inactive are the calls of the source. Rule as the data show it: active = GI50 up to about 1.1 µM and inactive = higher.
Outcome codes: yes (1) = active, no (0) = inactive

compound | assigned.category
Cc1cn([C@H]2C[C@H](O)[C@@H](CO)O2)c(=O)nc1N | no (0)
CC1=CC[C@@H](C(C)(C)O)C[C@@H]1O | no (0)
CC(C)(N)CO[C@H]1C[C@H]2CC[C@@]1(C)C2(C)C | no (0)
O=[N+]([O-])c1ccc2c3c1[C@H]1O[C@H]1c1cccc(c1-3)[C@@H]1O[C@H]21 | no (0)
CCOC(=O)c1nc2cc(F)c(F)cc2nc1NCc1cc(OC)c(OC)c(OC)c1 | no (0)
O=C1CCSc2nc(-c3ccc4c(c3)OCO4)nn21 | no (0)
CC(C)C(=O)/C=C/c1ccc(Cl)cc1Cl | no (0)
COC(=O)C(Cc1ccccc1)NC(=O)CSc1nnc(COc2ccc(Cl)cc2)n1-c1ccccc1 (stereo not given) | no (0)
CCOC(=O)C(NC(=O)c1ccccc1)(Nc1ccc(S(=O)(=O)Nc2nc(C)cc(C)n2)cc1)C(F)(F)F (stereo not given) | no (0)
O=c1[nH]c2nc3ccccc3c(=O)n2/c1=C/c1ccccc1 | no (0)
O=C(O)C1(Cc2ccccc2)Cc2cc3c(cc2C1)CCC3 | no (0)
Cn1c(C2CCCc3c2c2ccccc2n3C)cc2ccccc21 (stereo not given) | no (0)
Nc1nc(=O)c2c([nH]1)NCC(CNc1ccc(C(=O)N[C@@H](CCC(=O)O)C(=O)O)cc1)N2C=O (stereo not given in full) [LEUCOVORIN CALCIUM] | no (0)
O=c1[nH]c(-n2[nH]c3c(c2=O)CCCC3)nc(O)c1-c1ccccc1 | no (0)
CC(=O)Nc1ccc(C(=O)NN2C(=O)C(Cl)C2c2ccccc2)cc1 (stereo not given) | no (0)
O=c1[nH]c2nccn2c(Cl)c1Br | no (0)
CCCCCCCCCc1cc(=O)c2c(O)cc(O)cc2o1 | no (0)
C=CCCCCCCCCCOC1C=CC(OC(C)=O)C(COC(C)=O)O1 (stereo not given) | no (0)
CCCC1=C(OC)C(=O)c2c(C)cc(Cl)nc2C1=O | no (0)
CC(=O)O[C@H]1C(=O)[C@@]2(C)[C@H]([C@H](OC(=O)c3ccoc3)[C@]3(O)C[C@H](OC(=O)[C@H](O)[C@@H](NC(=O)c4ccccc4)c4ccccc4)C(C)=C1C3(C)C)[C@]1(OC(C)=O)CO[C@@H]1C[C@@H]2O | yes (1)
Cc1nc2cc(N)c(F)cc2[nH]1 | no (0)
CCOC(=O)/C(C#N)=C/c1coc2cc(C)cc(C)c2c1=O | no (0)
Cc1cc(C)c2c(=N)c3ccccc3n(CCCCCCCCn3c4ccccc4c(=N)c4c(C)cc(C)nc43)c2n1 | no (0)
COC1CCC(OS(C)(=O)=O)C(C)O1 (stereo not given) | no (0)
c1ccc(OC2=NC3=S(S2)SC(Oc2ccccc2)=N3)cc1 | no (0)
Cc1ccc(-c2n[nH]c(=O)n2/N=C\c2ccccc2)cc1 | no (0)
CCCCCCOc1ccc(C(=O)NO)cc1 | no (0)
O=C(O)c1c(-c2ccccc2)c(=O)[nH]c2ccccc12 | no (0)
CC1=NN(c2cccc(Cl)c2)C2(C1=Cc1ccc(O)cc1)C(Cl)C(=O)N2c1nc2ccccc2s1 (stereo not given) | no (0)
CN1CCN(c2nc(N)c(Br)c(Cl)n2)CC1 | no (0)
CSC1=C(C#N)C(=O)N(c2ccc(Cl)cc2)C(=O)C1C#N (stereo not given) | no (0)
Cc1ccc(NC(=O)CCc2cc(C(C)(C)C)nc(S)n2)cc1C | no (0)
CC(C)OP(=O)(OC(C)C)/C(=N/Nc1ccc([N+](=O)[O-])cc1)Nc1ccc(N/C(=N\Nc2ccc([N+](=O)[O-])cc2)P(=O)(OC(C)C)OC(C)C)cc1 | no (0)
COc1ccc(/C=C2\CN(C)C/C(=C\c3ccc(OC)cc3)C2=O)cc1 | no (0)
N=c1c2ccccc2sc2nc3ccccc3n12 | no (0)

====

Tested on: HCT-116
test.method.notes: NCI tumour cell line growth inhibition, 48 h
The source made the active and inactive calls. No stated cut-off is given here; in the data, active = GI50 up to about 1.1 µM and inactive = higher.
Outcome codes: active, inactive

compound | assigned.category
CCCn1c(SC)nc(COC(=O)NC)c1COC(=O)NC | inactive
c1ccc([P+](Cc2ccccc2C[P+](c2ccccc2)(c2ccccc2)c2ccccc2)(c2ccccc2)c2ccccc2)cc1 | inactive
Cn1c(=O)c2c(nc(NCCCCl)n2CC(=O)O)n(C)c1=O | inactive
COc1cc2oc(=O)cc(C)c2c(OC)c1O | inactive
O=C1C[C@@H]2[C@@H](C=CC23CCCC3)N1O | inactive
COc1ccc2nc(-c3ccc(N)cc3)sc2c1 | inactive
COc1cc2[nH]c(=O)c3cc(C)cc4c(Cl)nc(c1OC)c2c43 | inactive
COc1ccc(/C=C2\CN(C)C/C(=C\c3ccc(OC)cc3)C2=O)cc1 | inactive
Cn1c2ccccc2c2cc(-c3ccccc3)c3c(c21)C(=O)C=CC3=O | inactive
OC(CCN1CCN(CCOC(c2ccccc2)c2ccccc2)CC1)c1ccc(Br)cc1 (stereo not given) | inactive
CC[C@@H]([C@H](O)c1ccccc1Cl)[N+](=O)[O-] | inactive
CCCCCCCCCCCCCCCCCC(CCCCCCCCCCCCCCCCC)OP(=O)(O)O | inactive
C[N+]1(CCN=C=NC2CCCCC2)CCOCC1 | inactive
COC1[C@H](NC(=O)OC(C)(C)C)C(=O)N1Cc1ccccc1 (stereo not given in full) | inactive
Cn1c(=O)oc2cc(C(O)CN3CCN(Cc4ccccn4)CC3)c(Cl)cc21 (stereo not given) | inactive
CNC1=Nc2ccccc2C(=O)N2CSCC12 (stereo not given) | inactive
Cc1cc(OC(=O)Nc2cccc3ccccc23)c(C(C)C)cc1C(=S)Nc1ccccc1 | inactive
COc1cc2c3cc1Oc1c(OC)c(OC)cc4c1C(Cc1ccc(O)c(c1)-c1cc(ccc1OC)CC3N(C)CC2)N(C)CC4 (stereo not given) | inactive
COc1cc2c(c(OC)c1OC)-c1ccc(SC)c(=O)cc1[C@@H](NCc1ccc(F)cc1)CC2 | active
N#CC12C3C4CC5C6C4C1C6C(O)(C53)N2Cc1ccccc1 (stereo not given) | inactive
